# tested-system: Follistatin (Homo sapiens)
# method-notes: follistatin binders on small-molecule microarrays, primary screen, biochemical, small-molecule microarray, 635/667 nm fluorescence (AID 1132)
# condition-details: FST binding, 635 nm fluorescence, higher = more signal
assay-metric: composite z-score
A bare number is all that is needed in reply.

compound=COc1ccc([Si](C)(C)[C@@H]2[C@@H](CCO)O[C@]3(C(=O)N(Cc4ccc(N5CCCCC5=O)cc4)c4ccccc43)[C@H]2C)cc1 tested_system="Follistatin (Homo sapiens)" assay_metric="composite z-score" reported=1.07
compound=CCOC(=O)C1=CC[C@@H](c2cccc(Cl)c2)N(S(=O)(=O)c2ccc(C)cc2)C1 tested_system="Follistatin (Homo sapiens)" assay_metric="composite z-score" reported=0.191
compound="O=C1OCC=C[C@H]2OC34C=CCN(c5ccc(Cl)cc5)C(=O)[C@H]3N(CCO)C(=O)[C@@H]4[C@@H]12 (some centres undefined)" tested_system="Follistatin (Homo sapiens)" assay_metric="composite z-score" reported=-1.12
compound=O[C@@H](Cc1ccccc1)[C@@H](/C=C/C1CC1)N(CC#Cc1ccccc1)Cc1cccc(Cl)c1 tested_system="Follistatin (Homo sapiens)" assay_metric="composite z-score" reported=-1.19
compound="CN1C(=O)C2C=CC(C(O)c3ccc(F)cc3)N(Nc3ccccc3)C2C1=O (centres undefined)" tested_system="Follistatin (Homo sapiens)" assay_metric="composite z-score" reported=0.576
compound="CCOc1cc(C(O)C2C=CC3C(=O)N(C)C(=O)C3N2Nc2ccccc2)ccc1O (centres undefined)" tested_system="Follistatin (Homo sapiens)" assay_metric="composite z-score" reported=0.0506
compound=CO[C@]12C=C(Br)[C@@H](C[C@@H]1c1cccc(C)c1)[C@@]1(CO1)C2=O tested_system="Follistatin (Homo sapiens)" assay_metric="composite z-score" reported=0.415
compound=Cc1ccc(S[C@]2(C(=O)O)CC(=O)N(C3Cc4ccccc4C3)[C@@H]2c2ccc(CO)cc2)cc1 tested_system="Follistatin (Homo sapiens)" assay_metric="composite z-score" reported=-0.987
compound=CC(C)N1C(=O)C[C@@](C(=O)NCCCN(C)C)(c2ccc([N+](=O)[O-])cc2)[C@H]1c1ccc(CO)cc1 tested_system="Follistatin (Homo sapiens)" assay_metric="composite z-score" reported=0.316
compound=C=C(C(=O)CC[C@@H](OC(C)=O)c1ccc(CO)o1)C(C)C tested_system="Follistatin (Homo sapiens)" assay_metric="composite z-score" reported=1.33

Report composite z-score from Follistatin (Homo sapiens) testing of COC(=O)C(CC#Cc1ccc2c(c1)[C@]1(C(=O)N2)[C@H](C(=O)N2CCN(c3ncccn3)CC2)[C@H]2C(=O)O[C@H](c3ccccc3)[C@H](c3ccccc3)N2[C@@H]1c1ccc(OCCO)cc1)C(=O)OC
1.38

Report composite z-score from Follistatin (Homo sapiens) testing of CCCC[C@@H]1C[C@H]1[C@@H](NC(=O)c1ccccc1)c1ccc(C(F)(F)F)cc1
-1

Report composite z-score from Follistatin (Homo sapiens) testing of COC(=O)c1ccc([C@H](NC(=O)c2ccco2)[C@]2(C)C[C@H]2C2CCCCC2)cc1
-0.633

Report composite z-score from Follistatin (Homo sapiens) testing of COC(=O)[C@@]1(Cc2ccc(F)cc2)[C@H]2c3cc(C(=O)N(C)C)n(CCc4ccc(O)c(OC)c4)c3C[C@H]2CN1C(=O)c1ccccc1
0.472

* * *

# System: wheat germ agglutinin (Triticum aestivum), Alexa647-labelled
# method-notes: wheat germ agglutinin binders on compound microarrays, profiling panel, artefact control for SMM control-protein annotation, biochemical, small-molecule microarray, 635/667 nm fluorescence (AID 1140);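 note: score merges 667 nm feature emission with signal to noise over triplicate slides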
# condition-details: WGA-A647 binding, 635 nm fluorescence, higher = more signal
assay-metric: composite z-score
A bare number is all that is needed in reply.

A selection of reference data follows.
compound=COC(=O)c1c2oc(c1C(=O)OC)C(=O)N(Cc1ccccc1)Cc1cn(nn1)C[C@H](Cc1ccccc1)NC(=O)N[C@H](CO)CC2 reported=0.134
compound="CN1C(=O)C2C=CC(C(O)c3cccc(O)c3)N(Nc3ccccc3)C2C1=O (stereo not given)" reported=0.275
compound="COc1cc(OC)c(C(O)C2C=CC3C(=O)N(C)C(=O)C3N2NC(=O)OC(C)(C)C)cc1Br (stereo not given)" reported=1.23

Query composite z-score for CC(C)[Si](C#CCCCC#N)(O[C@H](c1ccccc1)c1cn([C@H](CO)Cc2ccccc2)nn1)C(C)C
0.231

Query composite z-score for COCCOC(=O)N1C(=O)[C@@]2(c3cc(C#CCCO)ccc31)[C@H](C(=O)Nc1nc3ccccc3s1)[C@H]1C(=O)O[C@H](c3ccccc3)[C@H](c3ccccc3)N1[C@@H]2c1ccccc1OCCO
0.902

* * *

Documented z-score across a set of molecules
# method-notes: Plasmodium falciparum growth inhibition, primary screen, strain 3D7, DAPI fluorescence, 100 nL (AID 1184);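 note: parasites grown inside human red blood cells in medium with human serum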
# condition-details: P. falciparum 3D7 growth, 3 d, higher = more signal

molecule=CC1=C([C@H](O)CCc2ccccc2)[C@H](CO)[C@@H]2C(=O)N(C)C(=O)[C@@H]2C1 reported=0.306
molecule="CN(C)C(=O)C1N=C(c2ccc(OCCCO)cc2)N(c2ccccc2)O1 (stereo not drawn)" reported=0.639
molecule=CN(C)CCCCNC(=O)[C@@H]1C[C@@H]2C(=O)N[C@@H](Cc3ccccc3)C(=O)N2[C@@H]1c1cccc(OCCO)c1 reported=0.0546
molecule=CN(C)CCCNC(=O)[C@@]1(C)c2ccccc2C(=O)N(Cc2ccccc2)[C@H]1c1ccc(CO)cc1 reported=-0.649

Query z-score for COCCCNC(=O)[C@@]1(Sc2ccc(C)cc2)CC(=O)N(C2CCCCC2)[C@@H]1c1ccc(CO)cc1
-0.715

Query z-score for CC(CO)N1C(=O)[C@@H]2[C@H]3C(=O)OCC=C[C@H]3OC23C=CCN(C(C)(C)C)C(=O)[C@@H]13 (stereo partly drawn)
0.293

Query z-score for CN1C(=O)C2C=CC(C(O)C#Cc3ccccc3)N(Nc3ccccc3)C2C1=O (stereo not drawn)
-0.351

Query z-score for CCCCC(=C=CC[C@@H](O)c1ccccc1OCCO)C[C@@H](O)COCc1ccccc1
-1.67

Query z-score for Cc1ccc(S[C@]2(C(=O)NCCCN(C)C)CC(=O)N(C3CCCCC3)[C@@H]2c2ccc(CO)cc2)cc1
-1.54

* * *

# method-notes: small-molecule microarray binders of probe aCHRDL2, primary screen, biochemical, biotinylated probe, 635/667 nm fluorescence (AID 1100)
# condition-details: higher = more signal
Would you please tag the item Condition met when its composite z-score is 0.2 or above, and Condition not met when it is below?

given_smiles=C=CCOC(=O)[C@H]1[C@@H]2C(=O)O[C@@H](c3ccccc3)[C@@H](c3ccccc3)N2[C@@H](c2ccc(OCCOC(=O)[C@@H]3C[C@@H]4C(=O)N5CCC[C@H]5C(=O)N4[C@@H]3c3ccc(O)cc3)cc2)[C@]12C(=O)Nc1ccc(I)cc12 group_label="Condition met"

Exam item: decide whether the reported composite z-score for NC(=O)NCC#Cc1ccc2c(c1)[C@]1(C(=O)N2)[C@H](C(=O)NC[C@H](O)c2ccccc2)[C@H]2C(=O)O[C@H](c3ccccc3)[C@H](c3ccccc3)N2[C@@H]1c1ccc(OCCO)cc1 is at least 0.2.
Condition met

Exam item: decide whether the reported composite z-score for C=CCOC(=O)[C@H]1[C@@H]2C(=O)O[C@@H](c3ccccc3)[C@@H](c3ccccc3)N2[C@@H](c2ccc(OCCOC(=O)[C@H]3C[C@H]4C(=O)N[C@@H](CC(C)C)C(=O)N4[C@H]3c3cccc(OCCO)c3)cc2)[C@]12C(=O)Nc1ccc(I)cc12 is at least 0.2.
Condition not met

Exam item: decide whether the reported composite z-score for COCCCNC(=O)[C@@]1(Sc2ccc(C)cc2)CC(=O)N(C2CCCCC2)[C@@H]1c1ccc(CO)cc1 is at least 0.2.
Condition met

Exam item: decide whether the reported composite z-score for CC1=C([C@H](O)CCc2ccccc2)[C@H](CO)[C@@H]2C(=O)N(C)C(=O)[C@@H]2C1 is at least 0.2.
Condition not met

Exam item: decide whether the reported composite z-score for C=C(C)c1cc2c(c(CCCCCC)n1)[Si](C(C)C)(C(C)C)OC2 is at least 0.2.
Condition not met

* * *

# method-notes: Plasmodium falciparum growth inhibition, primary screen, strain 3D7, DAPI fluorescence, 100 nL (AID 1184);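 note: parasites grown inside human red blood cells in medium with human serum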
# condition-details: P. falciparum 3D7 growth, 3 d, higher = more signal
assay-metric: z-score
A bare number is all that is needed in reply.

A selection of reference data follows.
compound=[N-]=[N+]=NCc1ccccc1C[C@@]1(C(=O)N2CCCCC2)N=C(c2ccc(OCCCO)cc2)O[C@@H]1c1ccccc1 reported=-2.38
compound=O=C1O[C@@H](c2ccccc2)[C@@H](c2ccccc2)N2[C@@H](c3ccc(OCCO)cc3)[C@]3(C(=O)Nc4ccccc43)[C@@H](C(=O)O)[C@H]12 reported=-1.29
compound="CC(C)(C)OC(=O)CC[C@]1(C(=O)NCC(O)CO)N=C(c2ccc(OCCCO)cc2)O[C@H]1c1ccccc1 (stereo partly specified)" reported=-1.74
compound=O=C(NCC(F)(F)F)[C@@H]1c2ccccc2C(=O)N(Cc2ccccc2C(F)(F)F)[C@H]1c1ccc(CO)cc1 reported=-0.485
compound=C=CCOC(=O)[C@H]1[C@@H]2C(=O)O[C@@H](c3ccccc3)[C@@H](c3ccccc3)N2[C@@H](c2ccc(OCCOC(=O)[C@H]3C[C@H]4C(=O)N[C@@H](CC(C)C)C(=O)N4[C@H]3c3cccc(OCCO)c3)cc2)[C@]12C(=O)Nc1ccc(I)cc12 reported=-1.79
compound=CCCCO[C@H]1C[C@H]2C(I)=C[C@@H]1C(=O)[C@]21CO1 reported=1.06

Query z-score for COc1cc2c(cc1OC)CN(C(=O)[C@@H]1[C@H]3C(=O)O[C@H](c4ccccc4)[C@H](c4ccccc4)N3[C@H](c3ccc(OCCO)cc3)[C@@]13C(=O)Nc1ccccc13)CC2
-1.77

Query z-score for C=CC[C@]1(C(=O)O)COC(c2ccc(OCCCO)cc2)=N1
-0.12

Query z-score for C=C[C@@H](OC)[C@H](OC(=O)Nc1ccc(SC)cc1)c1ccc(O)c(F)c1
-0.386

Query z-score for COC(=O)[C@@]1(Cc2ccc(OC)cc2)[C@H]2c3cc(C(=O)N4CCCC4)n(Cc4c(-c5ccccc5)noc4C)c3C[C@H]2CN1C(=O)c1ccccc1
-1.3

Query z-score for CCOC(=O)C1=C[C@@H](c2ccccc2)N(S(=O)(=O)c2ccc(C)cc2)[C@H]1c1ccccc1Cl
-2.02
